Test system: STS26T
assayText: relative IC50 (inflection point of fitted dose-response curve, CellTiter-Glo viability, 72 h; top asymptote may be below 50% inhibition); higher = less potent
Form field: relative IC50 (one value per entry).

Hello, I am looking for reported relative IC50 with STS26T for CN[C@@H](C)C(=O)N[C@H]1CN(C(=O)CC(C)C)CC[C@H]2CC[C@@H](C(=O)NC(c3ccccc3)c3ccccc3)N2C1=O [AT-406] . Could you help?
97.2 nM

Look up relative IC50 with STS26T for this compound: CC(C)N(CCCNC(=O)Nc1ccc(C(C)(C)C)cc1)C[C@H]1O[C@@H](n2cc(Br)c3c(N)ncnc32)[C@H](O)[C@@H]1O [SGC0946]
> 10000 nM

Lab request: please report relative IC50 under test system STS26T for CCN(CC)CCNC(=O)c1c(C)[nH]c(/C=C2\C(=O)Nc3ccc(F)cc32)c1C [Sunitinib]
> 1000 nM

Report relative IC50 for CC1(C)CNc2cc(NC(=O)c3cccnc3NCc3ccncc3)ccc21 [Motesanib] tested on STS26T.
> 10000 nM

Just for reference, the supplement of paper PMC5579334 is where these values come from.
